# Subject of test: UniProt:P22411
# Sequence (P22411 whole entry): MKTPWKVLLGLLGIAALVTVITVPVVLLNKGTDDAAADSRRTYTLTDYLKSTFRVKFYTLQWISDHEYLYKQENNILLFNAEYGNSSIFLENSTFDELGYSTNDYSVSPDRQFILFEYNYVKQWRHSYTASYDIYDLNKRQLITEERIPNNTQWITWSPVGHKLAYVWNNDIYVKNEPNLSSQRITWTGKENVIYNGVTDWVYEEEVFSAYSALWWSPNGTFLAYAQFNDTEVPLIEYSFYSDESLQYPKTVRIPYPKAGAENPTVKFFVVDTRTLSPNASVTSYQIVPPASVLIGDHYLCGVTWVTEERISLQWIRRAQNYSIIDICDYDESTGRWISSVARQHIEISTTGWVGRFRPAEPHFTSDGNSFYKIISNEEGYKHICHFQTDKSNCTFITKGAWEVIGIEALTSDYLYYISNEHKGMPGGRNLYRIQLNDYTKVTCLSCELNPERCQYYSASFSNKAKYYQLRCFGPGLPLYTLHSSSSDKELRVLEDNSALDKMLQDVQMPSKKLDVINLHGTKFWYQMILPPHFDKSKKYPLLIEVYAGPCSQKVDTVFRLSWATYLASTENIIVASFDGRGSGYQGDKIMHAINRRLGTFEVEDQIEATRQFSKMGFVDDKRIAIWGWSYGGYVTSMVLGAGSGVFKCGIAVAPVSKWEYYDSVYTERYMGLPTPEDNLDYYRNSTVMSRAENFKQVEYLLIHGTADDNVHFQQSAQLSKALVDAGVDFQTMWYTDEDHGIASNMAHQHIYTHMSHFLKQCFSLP
pIC50: −log10 of the molar value. Square brackets hold non-standard residues; d marks the D form. Peptide text beside a SMILES is read from it. Orn = NCCC[C@H](N)C(=O)O; Aze = O=C(O)[C@@H]1CCN1; Nva = CCC[C@H](N)C(=O)O
pIC50 vs 4: at or above is Fulfilled, below is Not fulfilled.

1) CC[C@H](C)[C@H](NC(=O)[C@@H]1CCCN1C(=O)[C@@H]1CCN1)C(=O)O [Aze-Pro-Ile] (H-[Aze]-Pro-Ile-OH; N-terminus and C-terminus assumed) : Fulfilled
2) CCC[C@H](N)C(=O)N1CCC[C@H]1C(=O)N[C@H](C(=O)O)[C@@H](C)CC [Nva-Pro-Ile] (H-[Nva]-Pro-Ile-OH; N-terminus and C-terminus assumed) : Fulfilled
3) CCC(C)C(N)C(=O)C1CCCCC1 (centres unmarked) [Ile-cyclohexyl ketone] : Not fulfilled
4) CC(C)(C)C(N)C(=O)C1CCCCC1 (centres unmarked) [t-butyl-Gly-cyclohexyl ketone] : Not fulfilled
5) CC[C@H](C)[C@H](NC(=O)[C@@H]1CCCN1C(=O)[C@@H](N)CCCN)C(=O)O [Orn-Pro-Ile] (H-[Orn]-Pro-Ile-OH; N-terminus and C-terminus assumed) : Not fulfilled
